- Test system: CCRF-CEM leukemia
- methodNotes: NCI tumour cell line growth inhibition, 48 h
measure: GI50

INSERT INTO assay_data (molecule, result) VALUES
  ('N#Cc1ccccc1C#C/C=C\C#CC#C/C=C\C#Cc1ccccc1C#N', '4.95 µM'),
  ('O=C(Nc1ccc(-n2ccc3c(NC(=O)c4ccccc4)nccc32)cc1)Nc1cccc(C(F)(F)F)c1', '1.27 µM'),
  ('CC(=O)[CH-]C(=O)c1ccccc1.CC(=O)[CH-]C(=O)c1ccccc1.CC(C)CCC[C@H](C)C1CCC2[C@@H]3CC=C4C[C@@H]([O-])CC[C@]4(C)C3CC[C@@]21C.CC(C)CCC[C@H](C)C1CCC2[C@@H]3CC=C4C[C@@H]([O-])CC[C@]4(C)C3CC[C@@]21C.Cl.[Ti+4] (some centres not stated)', '> 25 µM'),
  ('CCCCCCCCCCCCCCCCCCOc1ccccc1CC(=O)OCC[N+](CC)(CC)CC', '1.48 µM'),
  ('Cc1c(-c2ccc(O)cc2)oc(=O)c2ccc(O)cc12', '32.6 µM'),
  ('OCc1ccc(N2CCc3cc(F)ccc3C2)cc1Cl', '3.9 µM'),
  ('CCCCCCCCCC(CCCC(O)CC(=O)O)OC1OC(COC2OC(C)C(OC(C)=O)C(O)C2O)C(O)C(O)C1OC1OC(CO)C(O)C(O)C1OC1OC(C)C(OC(=O)CC(C)C)C(O)C1O (configuration not stated)', '> 35 µM');

* * *

- Tested on: NCI-H23 lung
- methodNotes: NCI tumour cell line growth inhibition, 48 h
measure: TGI

INSERT INTO assay_data (compound, result) VALUES
  ('CCCCNC(=NCc1ccccc1)NC#N', '> 100 µM'),
  ('Cc1nc(-n2nc(-c3ccccc3)cc2-c2ccccc2)sc1C(=O)/C=C/c1ccc(Cl)c(Cl)c1', '> 100 µM'),
  ('Cc1ccc(OCC2=NC3S/C(=C/c4ccc([N+](=O)[O-])o4)C(=O)N3N2)cc1 (stereo not given)', '28.8 µM'),
  ('CC(c1ccccc1)[C@@H](C(=O)Nc1ccc(I)cc1F)N1C(=O)N[C@H](c2ccc(OC[C@H](O)CO)cc2)C1=O (stereo not given in full)', '> 25 µM'),
  ('O=c1c2ccccc2nc(-c2ccccc2Cl)n1-c1nnc(C(F)(F)F)s1', '17.3 µM'),
  ('Nc1cc(S(=O)(=O)O)cc2ccc(S(=O)(=O)O)cc12', '> 100 µM'),
  ('COc1ccc(S(=O)(=O)N[C@H](C(=O)O)c2ccccc2)cc1', '> 100 µM'),
  ('COC(=O)C1CC23C4=C(CCC41)CCC1CN4CC(C)C(CC(OC(C)=O)C12COC(C)=O)C43O (stereo not given)', '> 100 µM'),
  ('Cc1cccc(/C=N\NC(=S)N2CCCCC2)n1', '> 100 µM'),
  ('O=C(/C=C/C(Cl)(Cl)Cl)Nc1ccc(Cl)cc1', '11.3 µM');

* * *

Reported GI50 values for a set of compounds
- Test system: PC-3 prostate
- methodNotes: NCI tumour cell line growth inhibition, 48 h
measure: GI50

INSERT INTO assay_data (moleculesmiles, result) VALUES
  ('COc1ccc(-c2nn(-c3ccc(NC(=O)c4cc(Cl)cc(Cl)c4)cc3)cc2-c2ccncc2)cc1Cl', '5.38 µM'),
  ('CCCCN=C(N)c1ccc(N2CCCN(c3ccc(C(N)=NCCCC)cc3)CC2)cc1', '11.5 µM'),
  ('CCOC(=O)/C(C#N)=C1\SS/C(=C(/C#N)C(=O)OCC)S1', '19.7 µM'),
  ('COc1ccc2nc3cc([N+](=O)[O-])ccc3c(NNc3ccccc3)c2c1', '10.4 µM'),
  ('C/C(=N\n1c(O)c(C#N)cc(C#N)c1=O)c1ccncc1', '> 100 µM');

* * *

- System: SR leukemia
- methodNotes: NCI tumour cell line growth inhibition, 48 h; in the data active means GI50 below about 0.43 µM; inactive means the rest
Labels: 1 = active, -1 = inactive

INSERT INTO assay_data (compound, systemname, categorylabel) VALUES
  ('Clc1ccc2ncc(-c3cccc(NC4CNC4)n3)n2c1', 'SR leukemia', -1),
  ('COc1cccc(C2=C(c3cn(C)c4cc(F)ccc34)C(=O)NC2=O)c1', 'SR leukemia', -1),
  ('CCCCCCCCCC(CCCC(O)CC(=O)O)OC1OC(COC2OC(C)C(OC(C)=O)C(O)C2O)C(O)C(O)C1OC1OC(CO)C(O)C(O)C1OC1OC(C)C(OC(=O)CC(C)C)C(O)C1O (stereo unspecified)', 'SR leukemia', -1),
  ('CCOC(=O)/C(C#N)=C1\SS/C(=C(/C#N)C(=O)OCC)S1', 'SR leukemia', -1),
  ('c1ccc(-c2n(Cc3ccc4ccccc4c3)cc[n+]2Cc2ccc3ccccc3c2)cc1', 'SR leukemia', -1),
  ('NC1=NC(=O)/C(=C/c2ccc3ncccc3c2)S1', 'SR leukemia', -1),
  ('O=C(Cc1csc2nc(-c3ccc(Cl)cc3)cn12)N/N=C/c1ccccc1O', 'SR leukemia', -1),
  ('O=C(COc1ccc(OCC(=O)N2C(=O)CN(c3ccccc3)C2=S)cc1)N1C(=O)CN(c2ccccc2)C1=S', 'SR leukemia', -1),
  ('C=C1C(=O)O[C@H]2[C@H]1CC/C(Cn1cc(-c3cccc(Cl)c3)nn1)=C\CC[C@@]1(C)O[C@@H]21', 'SR leukemia', 1),
  ('O=C1c2cccnc2C(=O)c2c1c(C(=O)NCCn1ccnc1)c1ccccn21', 'SR leukemia', -1),
  ('O=C(Nc1cccc(-n2cc(-c3ccncc3)c(-c3ccc(O)c(Cl)c3)n2)c1)c1cc(C(F)(F)F)cc(C(F)(F)F)c1', 'SR leukemia', -1);

* * *

- Test system: IGROV1 ovarian
- methodNotes: NCI tumour cell line growth inhibition, 48 h
measure: TGI

INSERT INTO results (compound, systemname, result) VALUES
  ('CN1CCN(c2ccc(NC(=O)c3cncnc3Nc3ccc(OCc4cccc(F)c4)c(Cl)c3)cc2)CC1', 'IGROV1 ovarian', '> 50 µM'),
  ('Cc1ccc(-c2nc3cc(Cl)c(Cl)cc3nc2C#N)cc1', 'IGROV1 ovarian', '> 100 µM'),
  ('O=c1ccc(=O)n(-c2ccccc2)[nH]1', 'IGROV1 ovarian', '> 100 µM'),
  ('C#CCNC(=O)NCCCCC(NC(C)=O)C(=O)NCc1ccccc1 (stereo not given)', 'IGROV1 ovarian', '> 100 µM'),
  ('O=C(N/N=C(/c1nc2ccc([N+](=O)[O-])cc2[nH]c1=O)C(O)c1ccc([N+](=O)[O-])cc1)c1ccncc1 (stereo not given)', 'IGROV1 ovarian', '> 100 µM');

* * *

Reported TGI values for a set of compounds
- System: MDA-MB-231 breast
- methodNotes: NCI tumour cell line growth inhibition, 48 h
measure: TGI

INSERT INTO assay_data (compound, measure, result) VALUES
  ('N#Cc1ncn(CCO)c1N', 'TGI', '> 100 µM'),
  ('Cc1cc(S(=O)(=O)Nc2n[nH]c(Nc3ccc4ccccc4c3)n2)c(S)cc1Cl', 'TGI', '> 100 µM'),
  ('CCO/C(O)=C(/C(=N)N1CCCC1)C(=O)Nc1cccc(Cl)c1', 'TGI', '> 100 µM'),
  ('O=C(COc1ccc(OCC(=O)N2C(=O)CN(c3ccccc3)C2=S)cc1)N1C(=O)CN(c2ccccc2)C1=S', 'TGI', '> 100 µM'),
  ('CC1=CC(O)C(C(O)(C(F)(F)F)C(F)(F)F)C(C)(C)C1 (stereo unspecified)', 'TGI', '> 10 µM'),
  ('C[N+]1(CCC(=O)c2ccccc2)CCC2CCC(C2)C1 (stereo unspecified)', 'TGI', '> 100 µM'),
  ('C[C@@H]1CCC2C(C)(C)C(/C=C\C=O)C3(C)OC213 (stereo partly specified)', 'TGI', '> 100 µM'),
  ('CC1(C)S[C@H](CN)N[C@H]1C(=O)OC(c1ccccc1)c1ccccc1', 'TGI', '> 100 µM'),
  ('CCN(CC)CCCNc1ccc([N+](=O)[O-])c2nc3ccc(OC)cc3c(N)c12', 'TGI', '3.29 µM'),
  ('CC(C)CCC[C@@H](C)C1CCC2[C@@H]3CCC4C[C@@H](NS(C)(=O)=O)CC[C@]4(C)C3CC[C@@]21C (stereo partly specified)', 'TGI', '> 100 µM'),
  ('Clc1ccc2ncc(-c3cccc(NC4CNC4)n3)n2c1', 'TGI', '75.1 µM'),
  ('CCCC(C)NC(=O)c1ccc(N(C)Cc2cnc3nc(N)nc(N)c3n2)cc1 (stereo unspecified)', 'TGI', '> 100 µM'),
  ('CCN(CC)c1ccc(C2NC(=O)c3ccccc3N2)cc1 (stereo unspecified)', 'TGI', '7.76 µM'),
  ('Cc1ccc2nc(-c3ccc(NC(=O)c4ccc(N)cc4)c(S(=O)(=O)O)c3)sc2c1', 'TGI', '> 100 µM'),
  ('O=C(CCl)Nc1cc(Cl)c(Cl)cc1Cl', 'TGI', '2.9 µM'),
  ('COc1ccc2nc(-c3ccccc3)cc(Nc3cccc(C(C)=O)c3)c2c1', 'TGI', '28.3 µM'),
  ('CCCCOCOc1ccccc1P1(=O)COc2ccccc2OC1', 'TGI', '> 100 µM'),
  ('CCN(CC)c1ccc2cc(C(=O)NCc3ccccc3)c(=N)oc2c1', 'TGI', '97 µM'),
  ('O=C1C2Cc3c(n(C(=O)c4ccccc4)c4ccccc34)CC2C(=O)N1c1ccc(Nc2ccc(N3C(=O)C4Cc5c(n(C(=O)c6ccccc6)c6ccccc56)CC4C3=O)cc2)cc1 (stereo unspecified)', 'TGI', '> 100 µM'),
  ('CCOC(=O)[C@@H]1ON2O[C@H](OC3CCCCC3c3ccccc3)C[C@H]3OC(=O)[C@@H]1C32 (stereo partly specified)', 'TGI', '> 100 µM'),
  ('CN=C(N)N=Nc1c(O)[nH]c2ccccc12', 'TGI', '> 100 µM');
